Give measured hERG current change (%, negative = inhibition) at 1uM for each item. Keep answers brief.
# assay.target: human ether-à-go-go-related gene (hERG) potassium channel (human)
# Sequence (Q12809 whole entry, looked up): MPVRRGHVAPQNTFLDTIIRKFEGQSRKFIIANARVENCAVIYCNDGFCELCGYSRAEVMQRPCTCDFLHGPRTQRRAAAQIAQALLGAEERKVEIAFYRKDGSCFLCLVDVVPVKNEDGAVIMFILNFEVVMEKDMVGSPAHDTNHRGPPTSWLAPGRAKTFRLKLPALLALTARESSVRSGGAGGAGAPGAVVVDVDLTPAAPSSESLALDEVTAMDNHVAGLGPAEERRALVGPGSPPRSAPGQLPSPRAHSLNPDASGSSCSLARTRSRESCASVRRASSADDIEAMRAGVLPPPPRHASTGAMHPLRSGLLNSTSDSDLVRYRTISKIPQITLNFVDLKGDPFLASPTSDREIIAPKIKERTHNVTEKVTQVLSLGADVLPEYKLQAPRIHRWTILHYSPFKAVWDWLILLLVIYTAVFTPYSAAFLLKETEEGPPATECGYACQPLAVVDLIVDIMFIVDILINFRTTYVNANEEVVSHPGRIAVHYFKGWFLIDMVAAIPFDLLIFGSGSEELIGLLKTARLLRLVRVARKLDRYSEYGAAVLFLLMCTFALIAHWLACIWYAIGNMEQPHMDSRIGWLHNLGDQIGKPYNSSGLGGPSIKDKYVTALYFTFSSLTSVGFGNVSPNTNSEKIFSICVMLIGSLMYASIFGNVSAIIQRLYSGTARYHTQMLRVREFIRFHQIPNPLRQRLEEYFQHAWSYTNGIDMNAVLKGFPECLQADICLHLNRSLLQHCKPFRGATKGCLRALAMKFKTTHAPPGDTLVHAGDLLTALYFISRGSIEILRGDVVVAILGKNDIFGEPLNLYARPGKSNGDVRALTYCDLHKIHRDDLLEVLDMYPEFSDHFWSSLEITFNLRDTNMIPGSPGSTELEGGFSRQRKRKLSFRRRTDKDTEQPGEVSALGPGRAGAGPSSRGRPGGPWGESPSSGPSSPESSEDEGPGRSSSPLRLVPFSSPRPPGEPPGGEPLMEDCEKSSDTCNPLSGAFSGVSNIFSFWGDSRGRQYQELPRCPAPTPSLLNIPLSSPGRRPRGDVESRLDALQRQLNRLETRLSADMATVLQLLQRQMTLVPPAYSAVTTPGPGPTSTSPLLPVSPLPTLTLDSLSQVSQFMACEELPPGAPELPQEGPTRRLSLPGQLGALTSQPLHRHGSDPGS
# assay.notes: primary screen, population patch clamp on CHO cells stably expressing hERG; higher = less effect of the substance
The whole screen tested about 310,000 compounds, of which about 2,200 (0.71%) showed an effect of 50% or more. The effect is printed as a negative number. This is one part of a sample in which strong results are shown more often than they occur.
Answers are plain numbers, in %.

Answered cases to consult:
{"compound": "CC1(C(=O)N2CCN(c3ccccc3)CC2)CC1(Cl)Cl (centres unmarked)", "experimental.value": 10.3}
{"compound": "CC(C)CNC(=O)CSc1nnc(-c2ccccn2)n1Cc1ccccc1", "experimental.value": 7.89}
{"compound": "Nc1[nH]c(=O)nc(Nc2ccccc2)c1N=O", "experimental.value": 8.79}
{"compound": "CN(C)S(=O)(=O)c1ccc(N2CCCC2)c(C(=O)N2CCN(c3ccc([N+](=O)[O-])cc3)CC2)c1", "experimental.value": -84}
{"compound": "CSC(=NC#N)N1CCN(c2ccc(Cl)cc2)CC1", "experimental.value": -6.45}
{"compound": "O=C(Nc1ccc(Cl)cn1)Nc1ccccc1F", "experimental.value": 0.928}
{"compound": "Cc1ccc(CN2CCN(Cc3nc4ccccc4nc3C)CC2CCO)cc1 (centres unmarked)", "experimental.value": -65.3}
{"compound": "CCN(CC)CC(=O)c1c[nH]c2ccc(OC)cc12", "experimental.value": 3.98}
{"compound": "Cc1ccc(CN2CCN(Cc3ccccc3)C(CCO)C2)s1 (centres unmarked)", "experimental.value": -26.7}
{"compound": "O=C(c1cc([N+](=O)[O-])ccc1Cl)N1CCN(c2ccccc2)CC1", "experimental.value": 4.13}

// each listed compound needs a value for hERG current change (%, negative = inhibition) at 1uM
1. c1ccc(-c2nn3nnnc3c3ccccc23)cc1
2. Cc1ccccc1OCC(=O)OCC(=O)c1ccc[nH]1
3. Cc1cccc(N2CCN(C(=O)c3cc(S(=O)(=O)N(C)C)ccc3N3CCCC3)CC2)c1C
4. O=C(CN1CCN(C/C=C/c2ccccc2)CC1)Nc1ccccc1C(=O)NC1CC1
5. N#C/C(=C/c1ccc(Cl)cc1)NC(=O)c1ccccc1
6. Cc1ccccc1NS(=O)(=O)c1ccc(OCC(=O)NCc2ccccn2)cc1
7. OCCC1CN(Cc2cccc3nccnc23)CCN1Cc1ccc(F)cc1 (centres unmarked)
8. O=C(c1cc([N+](=O)[O-])ccc1N1CCOCC1)N1CCN(c2ccc([N+](=O)[O-])cc2)CC1

[-82.9, 10.2, 5.76, -88.8, 12.2, 3.12, -7.96, -74]

// each listed compound needs a value for hERG current change (%, negative = inhibition) at 1uM
1. Cc1nn(CC(=O)Nc2cccnc2)c(=O)c2ccccc12
2. CCn1c(CN2CCN(Cc3ccc(C)cc3)C(CCO)C2)nc2ccccc21 (centres unmarked)
3. CC(=O)N1CCN(c2ccc([N+](=O)[O-])cc2)CC1
4. Cc1ccc(CN2CCN(Cc3ccccn3)CC2CCO)cc1 (centres unmarked)
5. Cc1ccc(-c2nn3nnnc3c3ccccc23)cc1C
6. CC(=O)Cc1ccccc1OCC(=O)O
7. Cc1ccc(C)c(S(=O)(=O)NCC(=O)NCc2ccco2)c1
8. CC1(C(=O)N2CCN(c3ccc([N+](=O)[O-])cc3)CC2)CC1(Cl)Cl (centres unmarked)

[-9.14, -50.5, -26, -5.1, -5.22, 18.9, 4.55, -64.3]
